Where do the numbers come from? From the supplement of paper PMC7877785.

Task for the reader: assign each of the following sequences its reported self-splicing fitness (ln).
# ASSAY: self-splicing fitness, log relative to wild type (ln ratio); higher = more splicing; Tetrahymena group I intron in knt gene, E. coli kanamycin selection, DiMSum; sequences stand for … in CUCUCU…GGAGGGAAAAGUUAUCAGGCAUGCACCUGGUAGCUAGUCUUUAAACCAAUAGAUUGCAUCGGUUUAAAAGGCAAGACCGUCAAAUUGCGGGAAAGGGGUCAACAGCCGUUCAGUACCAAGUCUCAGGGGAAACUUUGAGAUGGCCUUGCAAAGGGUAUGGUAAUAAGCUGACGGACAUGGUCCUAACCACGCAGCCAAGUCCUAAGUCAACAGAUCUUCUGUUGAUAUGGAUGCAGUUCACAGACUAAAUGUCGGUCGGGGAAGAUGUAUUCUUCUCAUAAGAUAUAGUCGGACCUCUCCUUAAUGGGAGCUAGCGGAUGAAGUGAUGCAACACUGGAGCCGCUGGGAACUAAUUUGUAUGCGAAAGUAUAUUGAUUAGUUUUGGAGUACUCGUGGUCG;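 note: selection with 25 µg/mL kanamycin versus none on LB agar overnight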
# MEASUREMENT CONDITIONS: 37 °C
Answers are plain numbers.

Record excerpt, results attached:
CAUAAGCAAUAUUACGUAAA -2.11
GAGGAGCAAUAUUACGUCGA -1.61
ACGUAGCAAUAUUACGACCU 0.527

Provide each entry's self-splicing fitness (ln) from the list below.
1. GAGGAGCAAUAUUACGAGUU
2. CAGGAGCAAUAUUACGCUAU
3. GUAAAGCAAUAUUACGCCAU
4. UGCAAGCAAUAUUACGUGGG
5. AUAUAGCAAUAUUACGGCAU

Completion:
1: -2.05; 2: -2.39; 3: -0.44; 4: -2.93; 5: 0.155

----------
# ASSAY: self-splicing fitness, log relative to wild type (ln ratio); higher = more splicing; Tetrahymena group I intron in knt gene, E. coli kanamycin selection, DiMSum; sequences stand for … in CUCUCU…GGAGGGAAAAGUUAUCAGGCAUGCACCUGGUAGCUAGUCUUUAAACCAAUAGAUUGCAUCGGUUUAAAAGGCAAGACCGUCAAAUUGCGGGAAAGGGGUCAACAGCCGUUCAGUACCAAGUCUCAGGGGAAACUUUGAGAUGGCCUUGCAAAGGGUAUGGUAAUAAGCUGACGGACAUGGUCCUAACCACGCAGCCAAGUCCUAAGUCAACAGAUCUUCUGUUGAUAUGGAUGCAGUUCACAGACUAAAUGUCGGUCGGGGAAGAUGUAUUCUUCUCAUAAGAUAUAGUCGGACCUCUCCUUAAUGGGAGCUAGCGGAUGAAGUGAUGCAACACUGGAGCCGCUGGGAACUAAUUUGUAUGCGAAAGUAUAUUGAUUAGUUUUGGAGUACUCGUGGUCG
# MEASUREMENT CONDITIONS: 30 °C
ASSAY METRIC: self-splicing fitness (ln)

Record excerpt, results attached:
GCUGAGCAAUAUUACGGGAU -2.39
UCCUAGCAAUAUUACGGUAA -0.552

Provide each entry's self-splicing fitness (ln) from the list below.
1. AGCGAGCAAUAUUACGCCGG
2. UGGAAGCAAUAUUACGGAUA
3. UUAAAGCAAUAUUACGACAU
4. UGUUAGCAAUAUUACGGUCA

Completion:
1: -3.03; 2: -0.862; 3: -0.271; 4: 0.281

----------
# ASSAY: self-splicing fitness, log relative to wild type (ln ratio); higher = more splicing; Tetrahymena group I intron in knt gene, E. coli kanamycin selection, DiMSum; sequences stand for … in CUCUCU…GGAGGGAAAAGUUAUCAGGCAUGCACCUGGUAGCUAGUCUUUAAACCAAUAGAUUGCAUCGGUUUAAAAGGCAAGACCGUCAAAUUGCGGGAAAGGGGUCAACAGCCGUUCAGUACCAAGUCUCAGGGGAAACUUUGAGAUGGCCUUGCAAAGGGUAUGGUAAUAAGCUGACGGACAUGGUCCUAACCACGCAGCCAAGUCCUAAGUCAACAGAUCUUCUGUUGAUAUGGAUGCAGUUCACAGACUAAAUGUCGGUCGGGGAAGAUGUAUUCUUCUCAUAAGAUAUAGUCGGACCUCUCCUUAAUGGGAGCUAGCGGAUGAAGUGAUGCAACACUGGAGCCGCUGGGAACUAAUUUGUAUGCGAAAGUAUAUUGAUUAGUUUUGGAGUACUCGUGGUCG
# MEASUREMENT CONDITIONS: 37 °C
Decide by self-splicing fitness (ln): equal to or exceeding -2 means Satisfied, less means Not satisfied.

Use these answered entries as a reference point.
CUUGAGCAAUAUUACGUAGA Not satisfied
CGACAGCAAUAUUACGGUCU Satisfied
AGCAAGCAAUAUUACGGUGC Not satisfied
AUGUAGCAAUAUUACGCGGU Satisfied
UCAAAGCAAUAUUACGGGUA Satisfied

Prompt: Kindly determine if self-splicing fitness (ln) recorded for `CCUCAGCAAUAUUACGACCG` is above or exactly -2.
Completion: Satisfied

Prompt: What about `CUGCAGCAAUAUUACGACUG` ?
Completion: Satisfied

Prompt: What about `CGCGAGCAAUAUUACGCGGU` ?
Completion: Not satisfied

Prompt: What about `ACUCAGCAAUAUUACGGUGG` ?
Completion: Not satisfied

Prompt: What about `CUCUAGCAAUAUUACGACAU` ?
Completion: Not satisfied

Prompt: What about `UUACAGCAAUAUUACGGUUU` ?
Completion: Satisfied

Prompt: What about `GAUCAGCAAUAUUACGGGCU` ?
Completion: Satisfied

Prompt: What about `CCGCAGCAAUAUUACGAGGA` ?
Completion: Satisfied

Prompt: What about `GGAAAGCAAUAUUACGAUCU` ?
Completion: Satisfied

Prompt: What about `CGUUAGCAAUAUUACGGCGG` ?
Completion: Satisfied

Prompt: What about `AAUAAGCAAUAUUACGAGGA` ?
Completion: Satisfied

----------
# ASSAY: self-splicing fitness, log relative to wild type (ln ratio); higher = more splicing; Tetrahymena group I intron in knt gene, E. coli kanamycin selection, DiMSum; sequences stand for … in CUCUCU…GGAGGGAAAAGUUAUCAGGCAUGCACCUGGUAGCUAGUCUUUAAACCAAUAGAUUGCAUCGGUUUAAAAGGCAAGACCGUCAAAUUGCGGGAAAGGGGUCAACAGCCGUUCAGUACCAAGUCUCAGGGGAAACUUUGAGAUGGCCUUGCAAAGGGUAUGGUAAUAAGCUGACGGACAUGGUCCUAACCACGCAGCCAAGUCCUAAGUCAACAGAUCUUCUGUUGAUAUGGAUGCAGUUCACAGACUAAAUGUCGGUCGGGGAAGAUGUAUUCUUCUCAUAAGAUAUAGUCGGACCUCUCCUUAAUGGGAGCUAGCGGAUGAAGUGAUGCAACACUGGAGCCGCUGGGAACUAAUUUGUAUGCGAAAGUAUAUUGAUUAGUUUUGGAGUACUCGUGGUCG
# MEASUREMENT CONDITIONS: 37 °C
Task for the reader: assign each of the following sequences its reported self-splicing fitness (ln).
One number for each entry.

Record excerpt, results attached:
GGCUAGCAAUAUUACGGCAU 0.833
GCCCAGCAAUAUUACGGAGU -0.683

Provide each entry's self-splicing fitness (ln) from the list below.
1. AGUGAGCAAUAUUACGGUCC
2. AAUCAGCAAUAUUACGCUGU
3. UAGUAGCAAUAUUACGGGGA
4. GAUAAGCAAUAUUACGAUGU
5. UAACAGCAAUAUUACGCGCA
6. ACGUAGCAAUAUUACGGCAC

Completion:
1: -0.741; 2: -1.59; 3: -3.25; 4: -0.545; 5: 0.0314; 6: -1.73

----------
# ASSAY: self-splicing fitness, log relative to wild type (ln ratio); higher = more splicing; Tetrahymena group I intron in knt gene, E. coli kanamycin selection, DiMSum; sequences stand for … in CUCUCU…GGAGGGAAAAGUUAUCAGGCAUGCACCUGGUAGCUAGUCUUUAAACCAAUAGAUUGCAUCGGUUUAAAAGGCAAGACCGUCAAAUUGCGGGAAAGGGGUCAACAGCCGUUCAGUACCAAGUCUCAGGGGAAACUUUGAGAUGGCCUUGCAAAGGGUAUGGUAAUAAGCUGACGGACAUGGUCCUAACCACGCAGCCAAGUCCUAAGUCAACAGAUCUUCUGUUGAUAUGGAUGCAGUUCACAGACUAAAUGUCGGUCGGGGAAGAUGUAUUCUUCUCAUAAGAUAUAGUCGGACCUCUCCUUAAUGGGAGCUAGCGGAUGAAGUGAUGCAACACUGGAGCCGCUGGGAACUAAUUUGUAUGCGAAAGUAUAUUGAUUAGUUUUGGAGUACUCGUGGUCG
# MEASUREMENT CONDITIONS: 37 °C
Decide by self-splicing fitness (ln): equal to or exceeding -2 means Yes, less means No.

Prompt: Kindly determine if self-splicing fitness (ln) recorded for `AUACAGCAAUAUUACGGCAA` is above or exactly -2.
Completion: Yes

Prompt: What about `GAAAAGCAAUAUUACGCCGG` ?
Completion: Yes

Prompt: What about `AUUGAGCAAUAUUACGCGAG` ?
Completion: Yes

Prompt: What about `CAGUAGCAAUAUUACGUGUU` ?
Completion: No

Prompt: What about `CUACAGCAAUAUUACGCGCU` ?
Completion: Yes

Prompt: What about `CAUGAGCAAUAUUACGAAGC` ?
Completion: Yes

Prompt: What about `CUCGAGCAAUAUUACGCGAU` ?
Completion: No
